- STUDY_SYSTEM: DR7 (DRB1*0701) (Homo sapiens, UniProt P01903+P01911, A100R/A102G/A103Q/D57E/D86V/E43K/F76Y/K127E/L162R/M171V/P40G/Q125H/Q99D/R33Q/R42Y/R54Q/S133A/S66F/T210M/V115G/Y107V/Y59L/Y89S)
- TEST: biochemical
- Format: binding
No end group written: not given here.
# label = true (1) if IC50 < 900 nM else false (0)

YENDSTDLRDHIDYW [Peptide 1601.01] = false (0)

Ask | Is the reported IC50 for ELQMALETLSKSQYS [Peptide 89.0183] strictly below 900 nM?
Reply | false (0)

Ask | Is the reported IC50 for PHPLYNMSLLKHQSL [Peptide 68.0007] strictly below 900 nM?
Reply | false (0)

Ask | Is the reported IC50 for VVTIPNSVQISVGYM [Peptide 1601.41] strictly below 900 nM?
Reply | true (1)

----------
- STUDY_SYSTEM: DRB1*1101 (Homo sapiens, UniProt P01903+P01911, A100R/A169T/A87E/I96F/K41T/L162R/M171V/P40S/Q125H/Q178H/Q39Y/Q99D/R42S/S66Y/T262R/V115G/W38E)
- Sequence (P01903 26-254 limits assumed, other chains not shown): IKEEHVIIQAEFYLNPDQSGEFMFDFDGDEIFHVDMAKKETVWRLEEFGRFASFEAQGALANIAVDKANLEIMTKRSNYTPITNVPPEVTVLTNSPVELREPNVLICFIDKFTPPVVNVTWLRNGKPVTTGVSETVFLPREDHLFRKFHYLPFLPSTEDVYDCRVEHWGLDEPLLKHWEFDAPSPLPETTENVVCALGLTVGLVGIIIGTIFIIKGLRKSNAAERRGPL
- TEST: biochemical
- REPORTED_CONDITIONS: Binding affinity DRB1 *1101
No end group written: not given here.
Listed below: pIC50 values for each entry.
Convention used: pIC50 is expressed as -log10 of the molar concentration.

DSEIAYKYAQLADTN [Peptide 89.0012] = 5.45

Ask | Recorded pIC50 for RDSVDSAPILTAFNS [Peptide 89.0156] , please?
Reply | 5.15

Ask | Recorded pIC50 for KNRLTVAKLMSNLLS [Peptide 89.0064] , please?
Reply | 5.80

Ask | Recorded pIC50 for AYGISFMELVRPFKS [Peptide 89.0060] , please?
Reply | 7.29

Ask | Recorded pIC50 for YKTLFVDVTSTYHWT [Peptide 90.0241] , please?
Reply | 5.38

Ask | Recorded pIC50 for TNCMLIQPPKLRSTA [Peptide 89.0046] , please?
Reply | 5.96

Ask | Recorded pIC50 for MLAVFKDTYGLSFTD [Peptide 90.0050] , please?
Reply | 5.64

Ask | Recorded pIC50 for VDFIDTQLSICEQAE [Peptide 89.0078] , please?
Reply | 5.41

----------
- STUDY_SYSTEM: DRB1*1302 (Homo sapiens, UniProt P01903+P01911, A100E/A169T/K41T/L162R/M171V/P40S/Q125H/Q178H/Q39Y/Q99D/R42S/S66N/T262R/V115G/W38E/Y61H)
- Sequence (P01903 26-254 limits assumed, other chains not shown): as above
- TEST: biochemical
- Format: binding
pIC50: −log10 of the molar value. No end group written: not given here.
Kind request: treat 6 as inclusive, so pIC50 at 6 or higher is Satisfied, anything lower is Not satisfied.

Solved entries:
GQVIVFPESVFSSDE [Peptide 89.0173] = Not satisfied
GQVIVCPASVSSNEV [Peptide 90.0016] = Satisfied
IKFFQGSVISFVNSQ [Peptide 89.0136] = Satisfied

Ask | Reported pIC50 at or above 6? ESDMAFEYALLADSN [Peptide 90.0055]
Reply | Not satisfied

Ask | Reported pIC50 at or above 6? PMCMMIEPPKLRSTA [Peptide 90.0034]
Reply | Not satisfied

----------
- STUDY_SYSTEM: DRB1*1101 (Homo sapiens, UniProt P01903+P01911, A100R/A169T/A87E/I96F/K41T/L162R/M171V/P40S/Q125H/Q178H/Q39Y/Q99D/R42S/S66Y/T262R/V115G/W38E)
- TEST: biochemical
- REPORTED_CONDITIONS: Binding affinity DRB1 *1101
MEASURED_PROPERTY: IC50

A selection of reference data follows.
CC[C@H](C)[C@H](NC(=O)[C@@H]1CCCN1C(=O)[C@H](CC(=O)O)NC(=O)[C@@H](NC(=O)[C@@H]1CCCN1C(=O)[C@H](Cc1ccccc1)NC(=O)[C@@H](NC(=O)[C@H](CC(=O)O)NC(=O)[C@@H](NC(=O)[C@@H]1CCCN1C(=O)[C@H](CO)NC(=O)[C@@H](N)CCCNC(=N)N)[C@@H](C)CC)[C@@H](C)O)[C@@H](C)O)C(=O)N[C@@H](CCCCN)C(=O)N[C@@H](CCC(=O)O)C(=O)N[C@@H](CO)C(=O)O [Peptide 68.0026] = > 20 µM
CC[C@H](C)[C@H](NC(=O)[C@@H](NC(=O)[C@@H]1CCCN1C(=O)[C@@H](NC(=O)[C@@H](NC(=O)[C@H](CC(N)=O)NC(=O)CNC(=O)[C@H](CO)NC(=O)[C@H](CS)NC(=O)[C@H](CC(C)C)NC(=O)[C@H](CCCCN)NC(=O)[C@H](CCCNC(=N)N)NC(=O)[C@H](CCCNC(=N)N)NC(=O)[C@@H](N)CCCCN)[C@@H](C)O)[C@@H](C)O)[C@@H](C)CC)C(=O)N[C@@H](Cc1c[nH]cn1)C(=O)O [Peptide 1601.16] = > 20 µM
CC[C@H](C)[C@H](NC(=O)[C@@H](NC(=O)[C@H](Cc1c[nH]cn1)NC(=O)[C@@H](N)CC(C)C)C(C)C)C(=O)N[C@@H](CO)C(=O)N[C@@H](CC(N)=O)C(=O)N[C@@H](CC(=O)O)C(=O)N[C@H](C(=O)N[C@@H](CS)C(=O)N[C@@H](C)C(=O)N[C@@H](CCC(N)=O)C(=O)N[C@H](C(=O)N[C@@H](Cc1c[nH]cn1)C(=O)N1CCC[C@H]1C(=O)N[C@@H](CCC(N)=O)C(=O)O)C(C)C)C(C)C [Peptide 68.0077] = > 20 µM
CC(C)C[C@H](NC(=O)[C@H](CCC(N)=O)NC(=O)[C@H](CCCCN)NC(=O)[C@@H](NC(=O)[C@H](CC(C)C)NC(=O)[C@H](CCC(N)=O)NC(=O)[C@@H](NC(=O)[C@H](C)NC(=O)[C@H](CO)NC(=O)[C@@H](NC(=O)[C@@H](NC(=O)[C@H](CC(=O)O)NC(=O)[C@@H](N)CC(=O)O)[C@@H](C)O)C(C)C)[C@@H](C)O)C(C)C)C(=O)N[C@@H](CCC(N)=O)C(=O)N[C@@H](Cc1c[nH]cn1)C(=O)O [Peptide 89.0162] = 0.943 µM

Now take the following molecule into account.
Ask | Recorded IC50 for CC[C@H](C)[C@H](NC(=O)[C@H](CO)NC(=O)[C@H](CC(N)=O)NC(=O)[C@H](C)NC(=O)[C@H](CC(C)C)NC(=O)[C@H](CCC(=O)O)NC(=O)[C@H](Cc1ccccc1)NC(=O)[C@@H](NC(=O)[C@H](CCSC)NC(=O)CN)C(C)C)C(=O)N[C@H](C(=O)N[C@@H](CC(C)C)C(=O)N1CCC[C@H]1C(=O)N[C@@H](Cc1ccccc1)C(=O)N[C@@H](CC(=O)O)C(=O)O)C(C)C [Peptide 68.0123] , please?
Reply | > 20 µM

----------
- STUDY_SYSTEM: A2.1 HLA molecules (Homo sapiens, UniProt P04439, D140Y/D185E/D98H/E176V/E277Q/G131W/G231S/I119V/I121R/I166T/I218V/L300P/L318F/N151K/N90K/P208A/P217A/Q86G/Q94H/R138H/R169H/T345S)
- Assay type: binding
- Set-up: scale not given here
Listed below: A2 Bind. values for each entry.
Respond with the number and no other words.

HMLQLTVWGI = 0.0677

Ask | Recorded A2 Bind. for IISLWDQSL , please?
Reply | 0.0179

Ask | Recorded A2 Bind. for QMMPKTGFLV , please?
Reply | 0.0500

Ask | Recorded A2 Bind. for LLTEVETYV , please?
Reply | 0.2000

----------
Listed below: pIC50 values for each entry.
- STUDY_SYSTEM: DRB1*1101 (Homo sapiens, UniProt P01903+P01911, A100R/A169T/A87E/I96F/K41T/L162R/M171V/P40S/Q125H/Q178H/Q39Y/Q99D/R42S/S66Y/T262R/V115G/W38E)
- TEST: biochemical
- REPORTED_CONDITIONS: Binding affinity DRB1 *1101
pIC50: −log10 of the molar value.

A selection of reference data follows.
CSCC[C@H](NC(=O)[C@@H](NC(=O)[C@H](CCCCN)NC(=O)[C@@H](NC(=O)[C@H](C)NC(=O)[C@H](CC(=O)O)NC(=O)[C@@H](N)[C@@H](C)O)C(C)C)C(C)C)C(=O)N[C@@H](CC(=O)O)C(=O)N[C@@H](CC(C)C)C(=O)N1CCC[C@H]1C(=O)N[C@H](C(=O)N[C@@H](CCC(N)=O)C(=O)N[C@@H](CCC(=O)O)C(=O)N1CCC[C@H]1C(=O)N[C@@H](C)C(=O)O)[C@@H](C)O [Peptide 68.0074] = < 4.70
CC(C)C[C@H](NC(=O)[C@H](CCC(N)=O)NC(=O)[C@H](CCCCN)NC(=O)[C@@H](NC(=O)[C@H](CC(C)C)NC(=O)[C@H](CCC(N)=O)NC(=O)[C@@H](NC(=O)[C@H](C)NC(=O)[C@H](CO)NC(=O)[C@@H](NC(=O)[C@@H](NC(=O)[C@H](CC(=O)O)NC(=O)[C@H](CC(=O)O)NC(=O)[C@@H](N)CO)[C@@H](C)O)C(C)C)[C@@H](C)O)C(C)C)C(=O)N[C@@H](CCC(N)=O)C(=O)O [Peptide 1601.13] = 4.81
CC[C@H](C)[C@H](NC(=O)[C@H](CC(=O)O)NC(=O)[C@H](Cc1c[nH]cn1)NC(=O)[C@@H](NC(=O)[C@@H](NC(=O)[C@@H](NC(=O)[C@H](CCC(N)=O)NC(=O)[C@H](CC(C)C)NC(=O)[C@H](CCC(=O)O)NC(=O)[C@@H](NC(=O)[C@H](CS)NC(=O)[C@@H](N)CC(C)C)[C@@H](C)O)[C@@H](C)O)[C@@H](C)O)[C@@H](C)CC)C(=O)N[C@H](C(=O)N[C@@H](CC(C)C)C(=O)N[C@@H](CCC(=O)O)C(=O)O)[C@@H](C)CC [Peptide 1543.24] = < 4.70
CC(C)C[C@H](NC(=O)[C@H](CCC(N)=O)NC(=O)[C@H](C)NC(=O)[C@H](CC(N)=O)NC(=O)[C@H](CCCCN)NC(=O)[C@@H](NC(=O)[C@H](CCCCN)NC(=O)[C@H](CC(N)=O)NC(=O)CN)C(C)C)C(=O)N[C@@H](C)C(=O)NCC(=O)N[C@@H](C)C(=O)N[C@@H](CCCCN)C(=O)NCC(=O)N[C@H](C(=O)O)C(C)C [Peptide 68.0097] = < 4.70

Ask | Recorded pIC50 for CC[C@H](C)[C@H](NC(=O)[C@@H]1CCCN1C(=O)[C@H](CCC(N)=O)NC(=O)[C@@H](N)Cc1c[nH]c2ccccc12)C(=O)N1CCC[C@H]1C(=O)N[C@H](C(=O)N[C@@H](Cc1c[nH]cn1)C(=O)N[C@H](C(=O)N[C@H](C(=O)N1CCC[C@H]1C(=O)N[C@@H](CC(C)C)C(=O)N[C@@H](CO)C(=O)N[C@@H](CCC(=O)O)C(=O)N[C@@H](CC(=O)O)C(=O)N[C@@H](CCC(N)=O)C(=O)O)C(C)C)[C@@H](C)O)C(C)C [Peptide 68.0039] , please?
Reply | < 4.70
